Conditions: in ethanol, 303.15 K
Quantity Kind: solubility (mole fraction)

>  <Molecule>
C1CC1N1C2C3N(C4CC4)C1C1N(C4CC4)C(C(N1C1CC1)N3C1CC1)N2C1CC1

>  <Data Value>
0.000675

$$$$

###

Settings: in dichloromethane, 298.15 K

>  <Molecule>
C1CC1N1C2C3N(C4CC4)C1C1N(C4CC4)C(C(N1C1CC1)N3C1CC1)N2C1CC1

>  <solubility (mole fraction)>
0.0222

$$$$

###

Details: in ethanol, 288.15 K
Quantity Kind: solubility (mole fraction)

>  <Molecule>
C1CC1N1C2C3N(C4CC4)C1C1N(C4CC4)C(C(N1C1CC1)N3C1CC1)N2C1CC1

>  <Data Value>
0.00036

$$$$

###

Details: in ethyl acetate, 303.15 K

>  <Molecule>
C1CC1N1C2C3N(C4CC4)C1C1N(C4CC4)C(C(N1C1CC1)N3C1CC1)N2C1CC1

>  <solubility (mole fraction)>
0.00305

$$$$

###

Settings: in cyclohexane, 313.15 K
Quantity Kind: solubility (mole fraction)

>  <Molecule>
C1CC1N1C2C3N(C4CC4)C1C1N(C4CC4)C(C(N1C1CC1)N3C1CC1)N2C1CC1

>  <Data Value>
0.0255

$$$$

###

Settings: in acetone, 298.15 K

>  <Molecule>
C1CC1N1C2C3N(C4CC4)C1C1N(C4CC4)C(C(N1C1CC1)N3C1CC1)N2C1CC1

>  <solubility (mole fraction)>
0.000611

$$$$

###

Conditions: in 1,2-dichloroethane, 308.15 K

>  <Molecule>
C1CC1N1C2C3N(C4CC4)C1C1N(C4CC4)C(C(N1C1CC1)N3C1CC1)N2C1CC1

>  <solubility (mole fraction)>
0.00752

$$$$

###

Settings: in chloroform, 283.15 K

>  <Molecule>
C1CC1N1C2C3N(C4CC4)C1C1N(C4CC4)C(C(N1C1CC1)N3C1CC1)N2C1CC1

>  <solubility (mole fraction)>
0.0263

$$$$

###

Conditions: in acetonitrile, 298.15 K

>  <Molecule>
C1CC1N1C2C3N(C4CC4)C1C1N(C4CC4)C(C(N1C1CC1)N3C1CC1)N2C1CC1

>  <solubility (mole fraction)>
0.000101

$$$$

###

Settings: in n-hexane, 318.15 K
Quantity Kind: solubility (mole fraction)

>  <Molecule>
C1CC1N1C2C3N(C4CC4)C1C1N(C4CC4)C(C(N1C1CC1)N3C1CC1)N2C1CC1

>  <Data Value>
0.0138

$$$$

###

Conditions: in n-hexane, 293.15 K
Quantity Kind: solubility (mole fraction)

>  <Molecule>
C1CC1N1C2C3N(C4CC4)C1C1N(C4CC4)C(C(N1C1CC1)N3C1CC1)N2C1CC1

>  <Quantity Kind>
solubility (mole fraction)

>  <Data Value>
0.00588

$$$$

###

Conditions: in n-hexane, 278.15 K

>  <Molecule>
C1CC1N1C2C3N(C4CC4)C1C1N(C4CC4)C(C(N1C1CC1)N3C1CC1)N2C1CC1

>  <solubility (mole fraction)>
0.00406

$$$$

###

Conditions: in n-hexane, 288.15 K

>  <Molecule>
C1CC1N1C2C3N(C4CC4)C1C1N(C4CC4)C(C(N1C1CC1)N3C1CC1)N2C1CC1

>  <solubility (mole fraction)>
0.00507

$$$$

###

Conditions: in ethyl acetate, 288.15 K
Quantity Kind: solubility (mole fraction)

>  <Molecule>
C1CC1N1C2C3N(C4CC4)C1C1N(C4CC4)C(C(N1C1CC1)N3C1CC1)N2C1CC1

>  <Data Value>
0.00168

$$$$

###

Conditions: in ethanol, 318.15 K

>  <Molecule>
C1CC1N1C2C3N(C4CC4)C1C1N(C4CC4)C(C(N1C1CC1)N3C1CC1)N2C1CC1

>  <solubility (mole fraction)>
0.00111

$$$$

###

Settings: in cyclohexane, 298.15 K
Quantity Kind: solubility (mole fraction)

>  <Molecule>
C1CC1N1C2C3N(C4CC4)C1C1N(C4CC4)C(C(N1C1CC1)N3C1CC1)N2C1CC1

>  <Data Value>
0.0157

$$$$

###

Conditions: in chloroform, 293.15 K

>  <Molecule>
C1CC1N1C2C3N(C4CC4)C1C1N(C4CC4)C(C(N1C1CC1)N3C1CC1)N2C1CC1

>  <solubility (mole fraction)>
0.0332

$$$$
